# Lookup of reported IC50 keyed by entry
target: BCR-NTRK1 BaF3 cells (Homo sapiens, UniProt P04629); construct: fused on or other part: P11274 (Breakpoint cluster region protein); assay: BaF3 BCR-NTRK1 cell proliferation assay (ATPlite); conditions: read-out: Inhibition of Cell Proliferation IC50, BCR/BaF3 TrkA
Sequence (P04629 510-781): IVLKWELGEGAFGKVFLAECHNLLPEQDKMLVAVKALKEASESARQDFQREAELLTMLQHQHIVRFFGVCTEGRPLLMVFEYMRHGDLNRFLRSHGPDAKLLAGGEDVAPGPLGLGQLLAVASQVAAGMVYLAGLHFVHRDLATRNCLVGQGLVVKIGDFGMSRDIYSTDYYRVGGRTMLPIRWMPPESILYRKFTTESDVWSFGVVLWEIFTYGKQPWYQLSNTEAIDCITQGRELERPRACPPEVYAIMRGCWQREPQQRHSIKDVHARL
quantity_kind: IC50

> print(dat)
                              sample.smiles   reported
1  CCc1ccc(Nc2ccc(C(=O)c3c[nH]c4ncnc(NC(C)C)c34)c(F)n2)cn1  < 0.01 µM
2  CCOc1ccc(Nc2ccc(Cc3c[nH]c4ncnc(C5CC5)c34)c(F)n2)cn1   < 0.1 µM
3  CNc1ncnc2[nH]cc(C(=O)c3cnc(NC4CCC(F)(F)CC4)c(F)c3)c12     < 1 µM
4  Cc1cncc(Nc2ccc(Cc3c[nH]c4ncnc(C5CC5)c34)c(F)n2)c1     < 1 µM
